tested_on: T1, human glucose-dependent insulinotropic polypeptide (GIP) receptor (human, UniProt P48546 22-466)
T1 sequence (looked up): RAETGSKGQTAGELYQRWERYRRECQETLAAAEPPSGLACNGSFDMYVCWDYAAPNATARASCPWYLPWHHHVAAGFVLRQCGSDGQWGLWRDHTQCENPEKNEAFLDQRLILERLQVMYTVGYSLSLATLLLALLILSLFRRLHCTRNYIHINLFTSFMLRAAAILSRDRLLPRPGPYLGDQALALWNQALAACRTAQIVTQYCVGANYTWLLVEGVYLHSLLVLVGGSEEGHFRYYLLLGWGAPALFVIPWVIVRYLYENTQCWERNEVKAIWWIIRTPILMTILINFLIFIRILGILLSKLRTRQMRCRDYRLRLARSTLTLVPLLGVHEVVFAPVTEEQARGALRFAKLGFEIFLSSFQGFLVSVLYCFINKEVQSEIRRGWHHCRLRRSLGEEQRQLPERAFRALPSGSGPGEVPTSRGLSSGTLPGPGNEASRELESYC
measurement_notes: cell-based or functional assay

| binder | cAMP EC50 / pM |
| --- | --- |
| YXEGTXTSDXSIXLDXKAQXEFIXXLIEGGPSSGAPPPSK (Aib2, αMeF(2F)6, 2Nal10, αMeL13, Orn16, K17(Z), Aib20, D-Glu24, αMeY25, K40(Z), C-terminal NH2; Z = AEEA2-CO-(CH2)12-CO2H) [Example 257] | 148 |
| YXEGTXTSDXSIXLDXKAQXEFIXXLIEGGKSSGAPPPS (Aib2, αMeF(2F)6, 4Pal10, αMeL13, Orn16, K17(Z), aMeF20, D-Glu24, αMeY25, K31(Z), C-terminal NH2; Z = AEEA2-(γ-Glu)-CO-(CH2)12-CO2H) [Example 169] | 38.1 |
| YXEGTXTSDXSIXLDXKAQXXFIXXLIEGGKSSGAPPPS (Aib2, αMeF(2F)6, 4Pal10, αMeL13, Orn16, K17(Z), Aib20, 4Pal21, D-Glu24, αMeY25, K31(Z), C-terminal NH2; Z = AEEA2-(γ-Glu)-CO-(CH2)12-CO2H) [Example 157] | 28.6 |
| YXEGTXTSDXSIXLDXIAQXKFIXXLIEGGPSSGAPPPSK (Aib2, αMeF(2F)6, 2Nal10, αMeL13, Orn16, Aib20, K21(Z), D-Glu24, αMeY25, K40(Z), C-terminal NH2; Z = AEEA2-CO-(CH2)12-CO2H) [Example 258] | 47.3 |
| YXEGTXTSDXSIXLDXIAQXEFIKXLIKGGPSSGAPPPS (Aib2, αMeF(2F)6, hTyr10, αMeL13, Orn16, Aib20, K24(Z), αMeY25, K28(Z), C-terminal NH2; Z = AEEA2-(γ-Glu)-CO-(CH2)12-CO2H) [Example 270] | 56.7 |
| YXEGTXTSDVSIXLDXKAQXEFIXXLIEGGKSSGAPPPS (Aib2, αMeF6, αMeL13, Orn16, K17(Z), Aib20, D-Glu24, αMeY25, K31(Z), C-terminal NH2; Z = AEEA2-(γ-Glu)-CO-(CH2)12-CO2H) [Example 179] | 150 |
